condition_details: [M+Na]+; instrument: DT; stepped-field
measured_property: collision cross section (N2) (Å²)

Challenge: I would be grateful if you could share the reported collision cross section (N2) for CCCCCCCCCCCCCCCCCCCCCCCC(=O)N[C@@H](CO)[C@H](O)CCCCCCCCCCCCCCC [Cer(42:00)] .
Response given: 281.85

Challenge: I would be grateful if you could share the reported collision cross section (N2) for CCCCCCCCCCCCCCCCCCCCCC(=O)N[C@@H](CO[C@@H]1O[C@H](CO)[C@@H](O)C(O)C1O)[C@H](O)CCCCCCCCCCCCCCC (stereo not given in full) [GlcCer(40:00)] .
Response given: 297.72

Challenge: I would be grateful if you could share the reported collision cross section (N2) for CC/C=C\C/C=C\C/C=C\C/C=C\C/C=C\CCCCCC(=O)O[C@H](COC(=O)CCCCCCCCCCCCCCCCC)COP(=O)([O-])OCC[N+](C)(C)C [PC(40:05)] .
Response given: 295.77

Challenge: I would be grateful if you could share the reported collision cross section (N2) for CCCCC/C=C\C=C/CCCCCCCCC(=O)O[C@H](COC(=O)CCCCCCCCCCCCCCCCC)COP(=O)([O-])OCC[N+](C)(C)C [PC(36:02)] .
Response given: 288.63

Challenge: I would be grateful if you could share the reported collision cross section (N2) for CCCCCCCCCCCCC=CC[C@@H](O)[C@H](COP(=O)([O-])OCC[N+](C)(C)C)NC(=O)CC=CCCCCCCCCCCCCCC [SM(36:02)] .
Response given: 280.32

Challenge: I would be grateful if you could share the reported collision cross section (N2) for CC/C=C\C/C=C\C/C=C\C/C=C\C/C=C\C/C=C\CCC(=O)OC[C@H](COP(=O)(O)OC[C@H](N)C(=O)O)OC(=O)CCCCC/C=C\C/C=C\C/C=C\C/C=C\CCCCC [PS(44:10)] .
Response given: 296.88

Challenge: I would be grateful if you could share the reported collision cross section (N2) for CC/C=C/C=C/C=C/C=C/CCCCCCCC(=O)O[C@H](COC(=O)CCCCCCCCCCCCCCCCC)COP(=O)([O-])OCC[N+](C)(C)C [PC(36:04)] .
Response given: 285.05

Challenge: I would be grateful if you could share the reported collision cross section (N2) for CCCCCCCCCCCCC=CC[C@@H](O)[C@H](CO[C@@H]1O[C@H](CO)[C@@H](O)C(O)C1O)NC(=O)CC=CCCCCCCCCCCCCCCCC (stereo not given in full) [GlcCer(38:02)] .
Response given: 287.34

Challenge: I would be grateful if you could share the reported collision cross section (N2) for CCCCCCCCCCCCC=CC[C@@H](O)[C@H](CO[C@@H]1O[C@H](CO)[C@@H](O)C(O)C1O)NC(=O)CC=CCC=CCCCCCCCCCCCCCCCCC (stereo not given in full) [GlcCer(42:03)] .
Response given: 297.28

Challenge: I would be grateful if you could share the reported collision cross section (N2) for CCCCCCCCCCCCC=CC[C@@H](O)[C@H](COP(=O)([O-])OCC[N+](C)(C)C)NC(=O)CCCCCCCCCCCCCCCCCCCCC [SM(40:01)] .
Response given: 296

Challenge: I would be grateful if you could share the reported collision cross section (N2) for CCCCCCCCCCCCC=CC[C@@H](O)[C@H](CO[C@@H]1O[C@H](CO)[C@@H](O)C(O)C1O)NC(=O)CC=CCCCCCCCCCCCCCCCCCCC (stereo not given in full) [GlcCer(41:02)] .
Response given: 296.1

Challenge: I would be grateful if you could share the reported collision cross section (N2) for CCCCCCCCCCCCC=CC[C@@H](O)[C@H](CO[C@@H]1O[C@H](CO)[C@@H](O)C(O)C1O)NC(=O)CC=CCC=CCCCCCCCCCCCCCCCCCC (stereo not given in full) [GlcCer(43:03)] .
Response given: 300.75

Challenge: I would be grateful if you could share the reported collision cross section (N2) for CCCCCCCCCCCCC=CC[C@@H](O)[C@H](COP(=O)([O-])OCC[N+](C)(C)C)NC(=O)CC=CCCCCCCCCCCCCCCCCCCC [SM(41:02)] .
Response given: 296.38

Challenge: I would be grateful if you could share the reported collision cross section (N2) for CCCCCCCC/C=C\CCCCCCCC(=O)O[C@H](COC(=O)CCCCCCCCCCCCCCCCC)COP(=O)(O)OCCN [PE(36:01)] .
Response given: 282.21

Challenge: I would be grateful if you could share the reported collision cross section (N2) for CCCCC/C=C\CCCCCCCC(=O)OC[C@H](COP(=O)(O)OCCN)OC(=O)CCCCCCCCCCCCCCCCCCCCC [PE(37:01)] .
Response given: 284.35

* * *

condition_details: [M+H]+; instrument: TW; calibrated with polyalanine and drug standards
measured_property: collision cross section (N2) (Å²)

Challenge: I would be grateful if you could share the reported collision cross section (N2) for NS(=O)(=O)c1cc2c(cc1Cl)NC=NS2(=O)=O [CHLOROTHIAZIDE] .
Response given: 161

Challenge: I would be grateful if you could share the reported collision cross section (N2) for CC(C)CCC[C@@H](C)[C@H]1CC[C@H]2[C@@H]3C=CC4=CC(=O)CC[C@]4(C)[C@H]3CC[C@]12C [CHOLESTA-4,6-DIEN-3-ONE] .
Response given: 208.3

Challenge: I would be grateful if you could share the reported collision cross section (N2) for O=c1ccc2ccccc2o1 [COUMARIN] .
Response given: 122.2

Challenge: I would be grateful if you could share the reported collision cross section (N2) for COc1cc(OC)cc(OC)c1 [1,3,5-TRIMETHOXYBENZENE] .
Response given: 130.6

Challenge: I would be grateful if you could share the reported collision cross section (N2) for COc1cc2c(cc1OC)-c1c(oc3c4c(ccc3c1=O)OC(C(C)C)C4)CO2 (stereo not drawn) [DEHYDRODIHYDROROTENONE] .
Response given: 194.6

Challenge: I would be grateful if you could share the reported collision cross section (N2) for CC(C)=CC1C(C(=O)O)C1(C)C (stereo not drawn) [CHRYSANTHEMIC ACID] .
Response given: 130

Challenge: I would be grateful if you could share the reported collision cross section (N2) for COc1ccc(-c2cc(=O)c3c(O)cc(OC)c(OC)c3o2)c(OC)c1 [5-HYDROXY-2',4',7,8-TETRAMETHOXYFLAVONE] .
Response given: 182

Challenge: I would be grateful if you could share the reported collision cross section (N2) for OC(Cn1cncn1)(Cn1cncn1)c1ccc(F)cc1F [FLUCONAZOLE] .
Response given: 163.4

* * *

condition_details: [M+H]+; instrument: TW; calibrated with polyalanine and drug standards
measured_property: collision cross section (N2) (Å²)

Challenge: I would be grateful if you could share the reported collision cross section (N2) for CC(C)=CCc1c2c(c3occ(-c4ccc(O)c(O)c4)c(=O)c3c1O)C=CC(C)(C)O2 .
Response given: 205.8

Challenge: I would be grateful if you could share the reported collision cross section (N2) for CC(=O)OCC(=O)[C@@]1(O)CC[C@H]2[C@@H]3CCC4=CC(=O)C=C[C@]4(C)[C@H]3[C@@H](O)C[C@@]21C [PREDNISOLONE ACETATE] .
Response given: 194

Challenge: I would be grateful if you could share the reported collision cross section (N2) for O=C1CC[C@]23/C=C/C(=O)NCCCCNCCCNC(=O)/C=C/c4ccc(c2c4)O[C@@H]3C1 .
Response given: 203.4

Challenge: I would be grateful if you could share the reported collision cross section (N2) for CC1(C)O[C@@H]2C[C@H]3[C@@H]4CCC5=CC(=O)C=C[C@]5(C)[C@H]4[C@@H](O)C[C@]3(C)[C@]2(C(=O)CO)O1 [DESONIDE] .
Response given: 198.5

* * *

condition_details: [M+H]+; instrument: TW; Major Mix IMS/Tof Calibration Kit (Waters)
measured_property: collision cross section (N2) (Å²)

Challenge: I would be grateful if you could share the reported collision cross section (N2) for Cc1cnc(NC(=O)C2=C(O)c3ccccc3S(=O)(=O)N2C)s1 [Meloxicam] .
Response given: 173.9

Challenge: I would be grateful if you could share the reported collision cross section (N2) for CNCC[C@@H](Oc1ccccc1C)c1ccccc1 [Atomoxetine] .
Response given: 164.2

Challenge: I would be grateful if you could share the reported collision cross section (N2) for CCCCOc1cc(C(=O)NCCN(CC)CC)c2ccccc2n1 [Dibucaine] .
Response given: 196.2

* * *

condition_details: [M-H]-; instrument: DT; single field, calibrated with ESI Low Concentration Tuning Mix (Agilent)
measured_property: collision cross section (N2) (Å²)

Challenge: I would be grateful if you could share the reported collision cross section (N2) for O=C(O)Cc1c[nH]c2ccc(O)cc12 [5-HYDROXYINDOLEACETATE] .
Response given: 137.1

Challenge: I would be grateful if you could share the reported collision cross section (N2) for C[C@H](CCC(=O)NCC(=O)O)[C@H]1CC[C@H]2[C@@H]3[C@H](O)C[C@@H]4C[C@H](O)CC[C@]4(C)[C@H]3C[C@H](O)[C@]12C [GLYCOCHOLATE] .
Response given: 202.2

Challenge: I would be grateful if you could share the reported collision cross section (N2) for O=C(O)C(O)c1ccc(O)c(O)c1 (stereo not given) [3,4 DIHYDROXYMANDELATE] .
Response given: 137.4

Challenge: I would be grateful if you could share the reported collision cross section (N2) for CCCCCCCCCCCCCCCCCCCCCCC(=O)[O-] [TRICOSANOATE] .
Response given: 196.9

Challenge: I would be grateful if you could share the reported collision cross section (N2) for Nc1nc(=O)c2ncn([C@H]3C[C@H](O)[C@@H](CO)O3)c2[nH]1 [DEOXYGUANOSINE] .
Response given: 159.1

[A] Nc1nc(=O)c2ncn([C@H]3C[C@H](O)[C@@H](COP(=O)(O)OP(=O)(O)O)O3)c2[nH]1 [DGDP]
[B] OCc1cccc(O)c1 [3-HYDROXYBENZYL ALCOHOL]
Challenge: Which record shows the lower collision cross section (N2): the first, A , or the second, B ? Give the chosen item's label as your response.
Response given: B

[1] OC[C@H]1O[C@H](OC[C@H]2O[C@H](O[C@]3(CO)O[C@H](CO)[C@@H](O)[C@@H]3O)[C@H](O)[C@@H](O)[C@@H]2O)[C@H](O)[C@@H](O)[C@H]1O [RAFFINOSE]
[2] Cc1ncc(CO)c(CO)c1O [PYRIDOXINE]
Challenge: Of 1 and 2 , whose reported collision cross section (N2) is the larger number? Give the chosen item's label as your response.
Response given: 1
(1: 197.3 Å², 2: 132.4 Å²)
